Biological target: HLA-B*51:01
Assay: IEDB peptide-MHC binding, purified MHC/direct/fluorescence; filed as Kd, often an IC50 or EC50 that approximates it; bounds were set here for any values at or beyond the usual limits of such assays
Details: source organism: Giardia lamblia ATCC 50803
measured endpoint: pKd
Answers are plain numbers, as −log10 of the molar value.

In: State the recorded pKd for this entry: "FPMIIGSEL"
Out: 5.67

====

Biological target: HLA-B*18:01
Assay: IEDB peptide-MHC binding, purified MHC/direct/fluorescence; filed as Kd, often an IC50 or EC50 that approximates it; bounds were set here for any values at or beyond the usual limits of such assays
Conditions: source organism: Marburg virus - Musoke, Kenya, 1980
measured endpoint: Kd

In: Data request, read-out Kd, for "YLAPSYRNF"
Out: ≥ 20 µM
